In this section we review reported inhibition values for a set of compounds.
Molecular target: Tyrosine-protein kinase ZAP-70 (Homo sapiens) (UniProt P43403)
Sequence (P43403 whole entry): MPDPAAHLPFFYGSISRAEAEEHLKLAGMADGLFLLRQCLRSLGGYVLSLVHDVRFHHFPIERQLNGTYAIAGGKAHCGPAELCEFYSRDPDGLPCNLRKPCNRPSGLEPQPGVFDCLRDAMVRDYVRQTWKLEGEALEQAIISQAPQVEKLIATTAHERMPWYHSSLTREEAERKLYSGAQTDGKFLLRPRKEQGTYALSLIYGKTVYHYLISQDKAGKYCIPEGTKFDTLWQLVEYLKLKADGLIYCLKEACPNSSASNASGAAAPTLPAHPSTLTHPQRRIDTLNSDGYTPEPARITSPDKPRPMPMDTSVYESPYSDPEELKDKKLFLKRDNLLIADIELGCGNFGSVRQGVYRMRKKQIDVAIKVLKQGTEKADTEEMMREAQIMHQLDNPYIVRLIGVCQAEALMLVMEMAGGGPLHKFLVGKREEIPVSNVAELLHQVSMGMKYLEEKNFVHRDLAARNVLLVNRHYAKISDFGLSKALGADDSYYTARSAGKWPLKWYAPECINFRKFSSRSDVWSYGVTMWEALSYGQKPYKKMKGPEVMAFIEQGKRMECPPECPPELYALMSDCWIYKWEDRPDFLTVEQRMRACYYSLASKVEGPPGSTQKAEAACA
Settings: at 1 µM
Description: GSK_PKIS: ZAP70 mean inhibition at 1 uM [Nanosyn]
The reply should contain only the number, in %.

Give inhibition for c1ccc(COc2ccc(Nc3ncnc4ccc(-c5ccco5)cc34)cc2)cc1 0.17

----------
compounds and their reported inhibition
Biological target: Vascular endothelial growth factor receptor 1 (Homo sapiens) (UniProt P17948)
Sequence (P17948 whole entry): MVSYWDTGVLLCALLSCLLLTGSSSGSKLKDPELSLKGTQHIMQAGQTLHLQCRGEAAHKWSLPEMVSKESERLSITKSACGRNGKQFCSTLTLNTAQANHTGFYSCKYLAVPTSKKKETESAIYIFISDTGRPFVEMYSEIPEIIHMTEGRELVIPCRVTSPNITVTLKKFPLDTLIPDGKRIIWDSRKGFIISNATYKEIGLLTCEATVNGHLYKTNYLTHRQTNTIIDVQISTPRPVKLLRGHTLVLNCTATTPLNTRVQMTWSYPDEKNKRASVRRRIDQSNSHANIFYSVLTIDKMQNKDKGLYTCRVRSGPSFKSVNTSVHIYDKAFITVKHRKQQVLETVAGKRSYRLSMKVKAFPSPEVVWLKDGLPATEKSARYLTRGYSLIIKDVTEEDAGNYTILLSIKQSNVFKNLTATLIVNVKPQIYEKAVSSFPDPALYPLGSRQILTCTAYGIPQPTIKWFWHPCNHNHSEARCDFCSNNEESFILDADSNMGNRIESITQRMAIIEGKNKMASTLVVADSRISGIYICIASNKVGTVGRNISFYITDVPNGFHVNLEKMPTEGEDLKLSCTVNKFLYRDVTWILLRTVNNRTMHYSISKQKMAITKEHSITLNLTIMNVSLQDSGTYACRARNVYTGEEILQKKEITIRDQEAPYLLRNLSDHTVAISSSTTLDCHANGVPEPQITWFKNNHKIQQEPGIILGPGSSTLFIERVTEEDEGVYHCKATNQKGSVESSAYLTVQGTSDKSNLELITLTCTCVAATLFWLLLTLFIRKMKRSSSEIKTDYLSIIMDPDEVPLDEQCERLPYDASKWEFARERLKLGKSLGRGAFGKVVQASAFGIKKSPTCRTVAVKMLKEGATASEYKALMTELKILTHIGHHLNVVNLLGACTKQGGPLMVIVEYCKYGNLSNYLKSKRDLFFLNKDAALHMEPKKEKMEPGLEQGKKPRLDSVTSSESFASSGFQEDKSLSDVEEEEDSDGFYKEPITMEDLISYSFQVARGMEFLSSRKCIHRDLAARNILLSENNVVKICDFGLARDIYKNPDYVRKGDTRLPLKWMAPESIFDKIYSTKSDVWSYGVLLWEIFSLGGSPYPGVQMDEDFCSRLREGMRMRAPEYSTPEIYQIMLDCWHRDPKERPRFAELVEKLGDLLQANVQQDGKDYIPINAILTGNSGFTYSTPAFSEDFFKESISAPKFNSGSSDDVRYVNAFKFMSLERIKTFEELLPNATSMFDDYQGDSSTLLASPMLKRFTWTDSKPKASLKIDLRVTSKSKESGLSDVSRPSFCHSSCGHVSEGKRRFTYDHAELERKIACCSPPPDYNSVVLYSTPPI
Conditions: at 1 µM
Description: GSK_PKIS: FLT1 mean inhibition at 1 uM [Nanosyn]
Quick note: give the figure in %, leave out the unit.

Worked cases, answers included:
COc1ccc2c(-c3ccnc(Nc4cccc(OC(F)(F)F)c4)n3)cnn2n1 :: 7.39
COC(=O)c1sc(-n2cnc3cc(OC)c(OC)cc32)cc1OCc1ccccc1C(F)(F)F :: 9.57
CCNC(=O)O[C@H]1CN[C@H](C#Cc2cc3ncnc(Nc4ccc(OCc5cccc(F)c5)c(Cl)c4)c3s2)C1 :: 1.26
FC(F)(F)c1cccc(-c2nn3ncccc3c2-c2ccnc(Nc3ccc4c(c3)OCCO4)n2)c1 :: 12
CC(C)COC(=O)c1ccc2c(c1)/C(=C/Nc1ccc(S(N)(=O)=O)cc1)C(=O)N2 :: 39.4
COc1ccc2[nH]c3c4[nH]c5ccc(OC)cc5c4c4c(c3c2c1)C(=O)NC4=O :: 19.2
c1cc(-c2cnn3nc(N4CCOCC4)ccc23)nc(NC2CC2)n1 :: 8.82
COC(=O)Nc1nc2ccc(S(=O)(=O)c3ccc(NC(=O)Nc4cc(C(F)(F)F)ccc4F)cc3)cc2[nH]1 :: -0.67

Fill in reported inhibition for this entry: CN1CCC(n2cnc(-c3ccc(F)cc3)c2-c2ccnc(Nc3ccccc3)n2)CC1 3.33

Note inhibition for the compound shown: COc1ccc(-c2nn3ncccc3c2-c2ccnc(Nc3ccc4c(c3)OCCO4)n2)cc1 26.8

Provide one value: measured inhibition of CCn1c(-c2nonc2N)nc2ccccc21 0.59

Return inhibition for the following compound: Clc1ccc(-c2nn3ncccc3c2-c2ccnc(Nc3ccccc3)n2)cc1 14.6
